Target: T1, human CD20 (human, UniProt P11836 1-297)
T1 sequence: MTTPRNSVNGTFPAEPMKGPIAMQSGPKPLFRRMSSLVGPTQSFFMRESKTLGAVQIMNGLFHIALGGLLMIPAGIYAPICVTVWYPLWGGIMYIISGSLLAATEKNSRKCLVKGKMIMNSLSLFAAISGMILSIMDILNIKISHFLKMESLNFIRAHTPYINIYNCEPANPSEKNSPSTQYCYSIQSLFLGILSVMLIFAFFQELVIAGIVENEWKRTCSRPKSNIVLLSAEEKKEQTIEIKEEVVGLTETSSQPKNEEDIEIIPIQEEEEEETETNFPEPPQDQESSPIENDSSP
Test: cell-based or functional assay
Reported property: % Cytotoxicity (CDC, Daudi), 0 hour

rituximab (RITUXAN, IDEC Pharmaceuticals Corp.) (antibody, V domains shown) VH: QVQLQQPGAELVKPGASVKMSCKASGYTFTSYNMHWVKQTPGRGLEWIGAIYPGNGDTSYNQKFKGKATLTADKSSSTAYMQLSSLTSEDSAVYYCARSTYYGGDWYFNVWGAGTTVTVSA VL: QIVLSQSPAILSASPGEKVTMTCRASSSVSYIHWFQQKPGSSPKPWIYATSNLASGVPVRFSGSGSGTSYSLTISRVEAEDAATYYCQQWTSNPPTFGGGTKLEIK ... 98.3%

Reference source: patent US20090035322A1
